Molecular target: T1, cynomolgus IL-36γ, truncated (cynomolgus macaque (Macaca fascicularis), UniProt Q9NZH8 18-167 (human entry), limits assumed)
T1 chain: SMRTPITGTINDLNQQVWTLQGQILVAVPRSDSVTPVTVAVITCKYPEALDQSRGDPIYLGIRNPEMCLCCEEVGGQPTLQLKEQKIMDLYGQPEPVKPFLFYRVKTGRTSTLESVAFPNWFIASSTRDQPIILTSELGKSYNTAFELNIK
Test: cell-based or functional assay
metricName: IC50 of IL-8 secretion, HaCaT, 10 nM cynomolgus IL-36γ, FIG. 2D (nM)
The figure you give is taken to be in nM; do not add the unit.

| binder | unitDescriptor | reading |
| --- | --- | --- |
| 144L180A (antibody, V domains shown) VH: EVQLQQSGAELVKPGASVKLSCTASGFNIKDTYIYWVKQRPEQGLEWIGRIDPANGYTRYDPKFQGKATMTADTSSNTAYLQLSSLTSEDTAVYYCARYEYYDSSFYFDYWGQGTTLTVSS VL: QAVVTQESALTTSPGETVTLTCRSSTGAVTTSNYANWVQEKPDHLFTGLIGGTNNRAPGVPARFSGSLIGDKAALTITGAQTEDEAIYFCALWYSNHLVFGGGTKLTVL | nM | 30.3 |
| 144L472A (antibody, V domains shown, Mouse monoclonal from hybridoma; mouse IgG heavy and lambda light chain) VH: EVQLQQSGAELVKPGASVKLSCTVSGFNIKDTYMYWVKQRPEQGLEWIGRIDPANGYAKYDPKFQGKATLTADTSSNTAYLQLSSLTSEDTAVYFCARFHWYDSAFYFDFWGQGTTLTVSS VL: QAVVTQESALTTSPGETVTLTCRSSSGAVTTSNYANWVQEKPDHLFTGLIGGTNNRAPGVPARFSGSLIGDKAALTITGAQTEDEAIYFCGLWYSNHWVFGGGTKLTVL | nM | 17.1 |
| 144L249B (antibody, V domains shown, Mouse monoclonal from hybridoma; mouse IgG heavy and lambda light chain; also called mouse antibody 144L249B) VH: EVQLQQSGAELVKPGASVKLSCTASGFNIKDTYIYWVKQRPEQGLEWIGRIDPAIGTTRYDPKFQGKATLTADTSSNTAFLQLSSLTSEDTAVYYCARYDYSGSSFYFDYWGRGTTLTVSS VL: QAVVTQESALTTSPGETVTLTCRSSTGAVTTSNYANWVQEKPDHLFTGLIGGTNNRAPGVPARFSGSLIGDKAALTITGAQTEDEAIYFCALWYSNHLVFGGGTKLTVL | nM | 11.8 |
| chimeric m/h 144D464A (antibody, human IgG1, lambda, V domains shown, Mouse VH/VL joined to human IgG1 constant and human Ig lambda (IGLC2) constant; also called chimeric mouse/human (m/h) 144D464A antibody) VH: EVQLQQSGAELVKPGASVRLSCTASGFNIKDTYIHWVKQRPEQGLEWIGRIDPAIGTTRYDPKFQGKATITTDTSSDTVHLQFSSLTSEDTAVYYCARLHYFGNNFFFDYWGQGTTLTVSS VL: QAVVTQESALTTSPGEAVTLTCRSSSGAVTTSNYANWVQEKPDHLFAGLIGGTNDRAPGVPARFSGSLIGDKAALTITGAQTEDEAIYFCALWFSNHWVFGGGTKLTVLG | nM | 13.2 |
| 144L133B (antibody, V domains shown) VH: EVQLQQSGAELVKPGASVKLSCTASGFNIKDTYMYWVKQRPEQGLEWIGRIDPAIGTTRYDPKFQGKATLTADTSSNTAFLQLSSLTSEDTAVYYCARYDYSGSSFYFDYWGRGTTLTVSS VL: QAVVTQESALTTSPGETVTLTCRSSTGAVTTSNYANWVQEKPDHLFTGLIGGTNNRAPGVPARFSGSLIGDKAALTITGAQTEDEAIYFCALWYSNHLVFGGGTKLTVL | nM | 20.6 |

So what does the record say about IC50 of IL-8 secretion, HaCaT, 10 nM cynomolgus IL-36γ, FIG. 2D for 144L124B (antibody, V domains shown, Mouse monoclonal from hybridoma; mouse IgG heavy and lambda light chain; Same VH and VL as 144L180A) VH: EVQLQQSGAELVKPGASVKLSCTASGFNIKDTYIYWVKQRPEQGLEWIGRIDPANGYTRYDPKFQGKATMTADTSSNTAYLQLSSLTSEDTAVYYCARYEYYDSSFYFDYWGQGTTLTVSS VL: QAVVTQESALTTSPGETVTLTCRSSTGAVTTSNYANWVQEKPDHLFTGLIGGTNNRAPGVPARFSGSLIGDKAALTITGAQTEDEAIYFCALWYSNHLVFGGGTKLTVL ?
28.3
